assay: CD69 Whole Blood Assay (CD69 Hu Blood FACS); assay type: cell-based, human; settings: Lymphocyte; human whole blood, anti-IgM activated B lymphocytes, FACS; IC70; Table 2 (unit inferred); read-out: CD69 Hu Blood FACS (IC70)
Outcome: T for IC70 of at least 100 nM; F for anything lower.

Use these answered entries as a reference point.
Is reported IC70 greater than or equal to 100 nM here: Cn1cnc(Nc2cc(-c3ccnc(N4CCn5c(cc6c5CC(C)(C)C6)C4=O)c3CO)cn(C)c2=O)c1 [Example 268]
T

Item Cc1cc(Nc2cc(-c3ccnc(-n4ccc5c(cc6n5CCCC6)c4=O)c3CO)cn(C)c2=O)nn1C [Example 246] with IC70 of 100 nM or above?
T

Given the entry CC(=O)N1CCn2nc(Nc3cc(-c4ccnc(N5CCn6c(cc7c6CCCC7)C5=O)c4CO)cn(C)c3=O)cc2C1 [Example 209] , answer whether its IC70 meets or surpasses 100 nM.
T

Dear colleague, could you confirm whether CCc1nnc(Nc2cc(-c3ccnc(N4CCn5c(cc6c5CC(C)(C)C6)C4=O)c3CO)cn(C)c2=O)s1 [Example 332] has IC70 at or above 100 nM?
F

Quick check: does CN1CC(Oc2ccc(Nc3cc(-c4ccnc(N5CCn6c(cc7c6CCCC7)C5=O)c4CO)cn(C)c3=O)nc2)C1 [Example 206] have IC70 greater than or equal to 100 nM?
T

New cases:
Given the entry Cn1cc(-c2ccnc(N3CCn4c(cc5c4CC(C)(C)C5)C3=O)c2CO)cc(Nc2nc3c(s2)CNCC3)c1=O [Example 233] , answer whether its IC70 meets or surpasses 100 nM.
F

Check the entry Cn1cc(-c2ccnc(N3CCn4c(cc5c4CC(C)(C)C5)C3=O)c2CO)cc(Nc2ccn3ccnc3n2)c1=O [Example 199] : does IC70 equal or exceed 100 nM?
T
